- Test system: SARS-CoV-2
- TEST SUMMARY: Antiviral activity against SARS-CoV-2 B.1.1.7 infected in human Calu-3 cells assessed as inhibition of viral infection preincubated for 1 hr followed by viral infection measured after 48 hrs by Hoechst 33342 staining based analysis
- Format: functional, organism-based
- CONDITIONS: Severe acute respiratory syndrome coronavirus 2, B.1.1.7, Calu-3
RESULT TYPE: IC50

* N=C(N)N1CCc2ccccc2C1 | 22 µM

====

- TARGET OR TEST SYSTEM: UniProt O15393
- Sequence (O15393 1-255 limits assumed): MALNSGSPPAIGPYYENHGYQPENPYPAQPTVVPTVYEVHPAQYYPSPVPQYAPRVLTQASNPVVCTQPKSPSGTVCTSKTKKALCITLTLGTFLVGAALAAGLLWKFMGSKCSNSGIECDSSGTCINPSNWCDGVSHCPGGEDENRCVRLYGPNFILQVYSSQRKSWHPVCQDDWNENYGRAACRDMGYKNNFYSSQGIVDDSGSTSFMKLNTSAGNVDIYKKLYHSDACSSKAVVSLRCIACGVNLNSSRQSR
- Sequence (O15393 256-492 limits assumed): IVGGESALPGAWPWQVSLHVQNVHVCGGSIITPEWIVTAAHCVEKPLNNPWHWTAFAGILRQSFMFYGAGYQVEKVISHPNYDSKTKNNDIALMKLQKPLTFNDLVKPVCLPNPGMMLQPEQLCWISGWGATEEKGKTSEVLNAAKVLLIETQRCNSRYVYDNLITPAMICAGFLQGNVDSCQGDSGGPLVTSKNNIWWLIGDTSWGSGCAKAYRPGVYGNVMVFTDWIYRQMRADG
Readings of IC50 for the listed compounds
RESULT TYPE: IC50 (µM)

• N=C(N)N1CCc2cc(NC(=O)c3ccc4ccccc4c3)ccc2C1 = 4
• N=C(N)N1CCc2ccccc2C1 = 23
